Recorded values, source the C3SDB collision cross section collection.

For each record, write down the corresponding collision cross section (N2).
details: [M-H]-; instrument: TW; calibrated with phosphatidylcholines (ESI+) and phosphatidylethanolamines (ESI-), doubly charged cardiolipins calibrated with poly-DL-…
Supply the numeric figure in Å², leaving out any unit text.

Query :: Input CCCCCCCC/C=C\CCCCCCCC(=O)OCC(COP(=O)(O)OCC(O)CO)OC(=O)CCCCCCC/C=C\CCCCCCCC (configuration not stated) [PG(36:2)] , output reported collision cross section (N2).
Result :: 275.05

Query :: # return recorded collision cross section (N2) for input CCCCCCCCCCCCCCC(=O)O[C@H](CO)COP(=O)([O-])OCC[NH3+] [LPE(0:0/15:0)]
Result :: 202.25

Query :: Item CCCCCC/C=C\CCCCCCCC(=O)OCC(COP(=O)(O)OCC(O)CO)OC(=O)CCCCCCCC1CC1CCCCCC (configuration not stated) [PG(33:2)] : provide collision cross section (N2)
Result :: 264.54

Query :: Give the value of collision cross section (N2) reported for the following: CCCCCCCCCCCCCCCC(=O)OCC(COP(=O)(O)O)OC(=O)CCCCCCCC1CC1CCCCCCCC (configuration not stated) [PA(35:1)]
Result :: 258.7

Query :: Check the records and state collision cross section (N2) for CCCCCCCC/C=C/CCCCCCCC(=O)O[C@H](CO)COP(=O)(O)OCC(O)CO (some centres not stated) [LPG(18:1)]
Result :: 217.26

Query :: Return collision cross section (N2) for the following compound: CCCCCCCCCCCCCCCC(=O)OCC(COP(=O)(O)OCC(O)CO)OC(=O)CCCCCCCC1CC1CCCC (configuration not stated) [PG(31:1)]
Result :: 259.19

Query :: Dear colleague, please send me the reported collision cross section (N2) for CCCCCCCCCCCCCCCC(=O)OC[C@H](O)COP(=O)(O)OC[C@@H](COC(=O)CCCCCCCCCCCCCCC)OC(=O)CCCCCCCC1CC1CCCCCC (some centres not stated) [AcylPG(49:1)] when you can.
Result :: 320.54
